assayed system: D37G OMPDC (Saccharomyces cerevisiae, UniProt P03962, D37G)
Sequence (P03962 whole entry D37G): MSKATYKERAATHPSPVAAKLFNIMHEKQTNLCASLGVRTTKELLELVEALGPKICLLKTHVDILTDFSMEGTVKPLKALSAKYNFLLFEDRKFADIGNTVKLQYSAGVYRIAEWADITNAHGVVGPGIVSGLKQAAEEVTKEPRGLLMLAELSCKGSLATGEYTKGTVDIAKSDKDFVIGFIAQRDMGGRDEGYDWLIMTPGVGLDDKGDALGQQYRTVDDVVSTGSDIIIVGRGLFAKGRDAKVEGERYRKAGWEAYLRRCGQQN
Assay type: biochemical
experimental context: phosphite dianion activation of D37G-catalyzed decarboxylation of EO, pH 7.0, 25 °C, I = 0.14 (NaCl)
measured property: Kd

Incoming: Looking for the measured Kd of O=[PH](O)O [HPO3^2−, phosphite dianion] , can you help?
Outgoing: 5.1 mM

###

assayed system: D37G OMPDC (Saccharomyces cerevisiae, UniProt P03962, D37G)
experiment description: D37G variant OMPDC-catalyzed decarboxylation of FO, dianion-activated
Format: biochemical
experimental context: activator of D37G OMPDC-catalyzed decarboxylation of FO, pH 7.0, 25 °C, I = 0.15 (NaCl)
measured property: pKd
Give only the number. pKd is defined as minus log10 of concentration in molar units.

Incoming: Looking for the measured pKd of O=[PH](O)O , can you help?
Outgoing: 2.33
